- Test system: CYP2B6
- procedure.summary: CYP2B6 enzyme activity induction in plated human hepatocytes
- condition.info: human
result.type: fold induction at 72 h, 1000 μM
Lab note: record just the number, no unit beside it.

Query :: Form field: reported fold induction at 72 h, 1000 μM of CCC1(c2ccccc2)C(=O)NC(=O)NC1=O [phenobarbital, reference compound]
Result :: 5.03

====

- Test system: OCT2
- Construct: expressed in transfected cells; host or cells: MDCK-II
- procedure.summary: OCT2 inhibition study in MDCK cells
- Type: in vitro ADME
- condition.info: MDCK-II cell monolayer expressing OCT2, probe [14C]-metformin, 10 μM; read-out: % inhibition of OCT2-mediated transport of metformin, reference inhibitor
result.type: inhibition at 5 min, 1000 μM (%)
# unit: % | format: bare number

Query :: Form field: reported inhibition at 5 min, 1000 μM of C=C[C@H]1C[N@@]2CC[C@H]1C[C@@H]2[C@@H](O)c1ccnc2ccc(OC)cc12
Result :: 98.5

====

- Test system: CYP2B6 mRNA
- procedure.summary: CYP2B6 mRNA induction in plated human hepatocytes
- condition.info: human
result.type: fold induction at 72 h, 1000 μM
Lab note: record just the number, no unit beside it.

Query :: Form field: reported fold induction at 72 h, 1000 μM of CCC1(c2ccccc2)C(=O)NC(=O)NC1=O [phenobarbital, reference compound]
Result :: 9.83

====

- target.under.test: CYP2E1 (Homo sapiens, UniProt P05181)
- Sequence (P05181 whole entry): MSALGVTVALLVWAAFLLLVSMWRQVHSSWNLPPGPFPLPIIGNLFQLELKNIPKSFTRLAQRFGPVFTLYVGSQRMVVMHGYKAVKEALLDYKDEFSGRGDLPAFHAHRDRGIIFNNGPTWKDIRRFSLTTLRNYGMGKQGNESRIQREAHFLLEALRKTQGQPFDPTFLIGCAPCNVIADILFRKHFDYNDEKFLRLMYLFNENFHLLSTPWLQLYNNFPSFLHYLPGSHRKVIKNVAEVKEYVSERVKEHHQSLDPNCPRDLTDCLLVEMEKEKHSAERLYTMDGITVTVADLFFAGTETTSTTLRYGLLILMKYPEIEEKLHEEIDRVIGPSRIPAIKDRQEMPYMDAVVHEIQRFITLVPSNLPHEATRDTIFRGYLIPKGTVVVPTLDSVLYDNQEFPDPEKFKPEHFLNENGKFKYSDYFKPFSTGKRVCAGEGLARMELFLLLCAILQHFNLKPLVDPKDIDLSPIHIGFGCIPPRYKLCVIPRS
- procedure.summary: CYP2E1 inhibition in cryopreserved human hepatocyte suspensions (chlorzoxazone probe)
result.type: IC50 (nM)
# unit: nM | format: bare number

Query :: Form field: reported IC50 of Cc1ncsc1CCCl
Result :: 1.08

====

- Tested on: OCT1
- Construct: expressed in transfected cells; host or cells: MDCK-II
- procedure.summary: OCT1 inhibition study in MDCK cells
- Format: in vitro ADME
- condition.info: MDCK-II cell monolayer expressing OCT1, probe [3H]-MPP+, 2 μM; read-out: % inhibition of OCT1-mediated transport of MPP+, reference inhibitor
- Description: A 96-well cell culture plate containing a monolayer of MDCK-II cells grown on a permeable support and a corresponding receiver tray was used. […] Test article concentrations, including control samples, were evaluated by an LC-MS method. Signal to noise for probe substrates was calculated by dividing the uptake of the probe substrate in transporter-expressing cells by the uptake of probe substrate in control cells not expressing the transporter of interest. […]
result.type: inhibition at 5 min, 1000 μM
Reply with the number and its unit after it.

Query :: Notebook: pull reported inhibition at 5 min, 1000 μM for OCT1, entry C=C[C@H]1C[N@@]2CC[C@H]1C[C@@H]2[C@@H](O)c1ccnc2ccc(OC)cc12 [quinidine]
Result :: 91.2%
